molecular target: CDK8 (CDK8/CycC) (Homo sapiens, UniProt P49336); construct: purchased Invitrogen PV4402; assay: FRET based Lanthascreen binding competition assay; settings: 5 nM CDK8/CycC, 10 nM Alexa647-Tracer, 1% DMSO, 60 min at RT; read-out: IC50 CDK8 binding
Sequence (P49336 whole entry): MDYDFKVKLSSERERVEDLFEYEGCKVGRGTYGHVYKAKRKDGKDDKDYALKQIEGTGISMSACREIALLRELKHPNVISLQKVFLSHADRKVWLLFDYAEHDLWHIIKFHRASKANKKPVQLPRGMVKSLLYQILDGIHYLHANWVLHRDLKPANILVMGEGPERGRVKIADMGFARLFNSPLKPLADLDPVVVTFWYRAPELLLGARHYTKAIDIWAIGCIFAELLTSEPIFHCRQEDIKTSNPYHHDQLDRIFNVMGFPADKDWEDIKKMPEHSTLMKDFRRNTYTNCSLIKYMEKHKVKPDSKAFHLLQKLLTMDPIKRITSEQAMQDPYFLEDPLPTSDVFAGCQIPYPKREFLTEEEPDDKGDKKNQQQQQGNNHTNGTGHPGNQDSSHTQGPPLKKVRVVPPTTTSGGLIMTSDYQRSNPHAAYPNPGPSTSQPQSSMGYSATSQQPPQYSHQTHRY
Sequence (P24863 whole entry partner): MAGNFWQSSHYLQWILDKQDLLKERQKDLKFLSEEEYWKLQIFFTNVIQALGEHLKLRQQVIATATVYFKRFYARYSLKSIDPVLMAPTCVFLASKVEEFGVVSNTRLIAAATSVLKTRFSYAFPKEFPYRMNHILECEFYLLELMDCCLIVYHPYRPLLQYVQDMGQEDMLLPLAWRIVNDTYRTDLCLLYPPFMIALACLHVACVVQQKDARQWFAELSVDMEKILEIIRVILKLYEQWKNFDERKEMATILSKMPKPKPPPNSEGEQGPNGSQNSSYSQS
Known IC50 of a selection of compounds

The cases that follow already have their IC50 on record.
CC(C)(O)Cn1cc(-c2ccc(-c3cncc4ccc(N5C(=O)Cc6ccccc65)cc34)cc2)cn1 [Compound 150]; 10 to 100 nM
COCCNC(=O)c1ccc2cncc(-c3ccc(-c4cnn(C)c4)cc3)c2n1 [Compound 74]; < 10 nM

Q: What does the record list as IC50 for COC1CN(C(=O)c2ccc3c(N)ncc(-c4ccc5c(cnn5C)c4)c3n2)C1 [Compound 140] ?
Result: 10 to 100 nM

Q: Entry to check: C[C@H](NC(=O)c1ccc2cncc(-c3ccc(-c4cnn(C)c4)cc3)c2n1)c1ccccc1 [Compound 27]
Result: < 10 nM

Q: Can you handle Cn1cc(-c2ccc(-c3cncc4ccc(N5CCCCS5(=O)=O)cc34)cc2)cn1 [Compound 110] next?
Result: 10 to 100 nM
